- SYSTEM_NAME: Mu-type opioid receptor (Rattus norvegicus) (UniProt P33535)
- Sequence (P33535 whole entry): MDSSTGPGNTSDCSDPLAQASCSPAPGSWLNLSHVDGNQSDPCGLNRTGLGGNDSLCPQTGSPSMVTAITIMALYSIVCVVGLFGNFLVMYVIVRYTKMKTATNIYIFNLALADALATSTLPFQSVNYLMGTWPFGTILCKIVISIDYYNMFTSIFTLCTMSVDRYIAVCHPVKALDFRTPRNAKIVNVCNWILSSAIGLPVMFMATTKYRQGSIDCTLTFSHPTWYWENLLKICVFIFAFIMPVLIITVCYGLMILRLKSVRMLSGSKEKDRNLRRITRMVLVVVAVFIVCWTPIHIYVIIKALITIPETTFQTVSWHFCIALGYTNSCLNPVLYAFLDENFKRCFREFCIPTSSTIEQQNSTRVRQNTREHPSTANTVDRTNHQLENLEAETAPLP
- TEST_DETAILS: Agonist activity at rat mu opioid receptor transfected in HN9.10 cells by [35S]GTPgammaS binding assay
- Assay type: functional, cell-based
Non-standard residues stand in square brackets, D forms with d. Residues, ends and D or L forms follow the SMILES beside them. *: point of attachment. OBzl(3,5-(CF3)2) = FC(F)(F)c1cc(CO*)cc(C(F)(F)F)c1
As shown below, each of these compounds has a reported Emax value.
PARAMETER_MEASURED: Emax (%)

[
  {
    "COMPOUND": "C[C@@H](NC(=O)[C@@H](N)Cc1ccc(O)cc1)C(=O)NCC(=O)N[C@@H](Cc1ccccc1)C(=O)N[C@@H](Cc1c[nH]c2ccccc12)C(=O)OCc1cc(C(F)(F)F)cc(C(F)(F)F)c1 (H-Y[dA]GFW-{OBzl(3,5-(CF3)2)})",
    "SYSTEM_NAME": "Mu-type opioid receptor (Rattus norvegicus) (UniProt P33535)",
    "RESULT_NUMBER": 14
  },
  {
    "COMPOUND": "C[C@@H](NC(=O)[C@@H](N)Cc1ccc(O)cc1)C(=O)NCC(=O)N[C@@H](Cc1c[nH]c2ccccc12)C(=O)OCc1cc(C(F)(F)F)cc(C(F)(F)F)c1 (H-Y[dA]GW-{OBzl(3,5-(CF3)2)})",
    "SYSTEM_NAME": "Mu-type opioid receptor (Rattus norvegicus) (UniProt P33535)",
    "RESULT_NUMBER": 34
  },
  {
    "COMPOUND": "C[C@@H](NC(=O)[C@@H](N)Cc1ccc(O)cc1)C(=O)NCC(=O)N[C@@H](Cc1ccc(F)cc1)C(=O)OCc1cc(C(F)(F)F)cc(C(F)(F)F)c1",
    "SYSTEM_NAME": "Mu-type opioid receptor (Rattus norvegicus) (UniProt P33535)",
    "RESULT_NUMBER": 58
  },
  {
    "COMPOUND": "C[C@@H](NC(=O)[C@@H](N)Cc1ccc(O)cc1)C(=O)N[C@@H](Cc1c[nH]c2ccccc12)C(=O)OCc1cc(C(F)(F)F)cc(C(F)(F)F)c1",
    "SYSTEM_NAME": "Mu-type opioid receptor (Rattus norvegicus) (UniProt P33535)",
    "RESULT_NUMBER": 26
  }
]
